All figures here come from patent US20240043439A1.

- TARGET OF ASSAY: C5aR (Homo sapiens (Human))
- MEASUREMENT PROTOCOL: Calcium mobilization (U937/C5aR or HEK293/C5aR cells, FLIPR)
- Format: cell-based
- RUN CONDITIONS: agonist human C5a at EC80, FLIPR
pIC50: −log10 of the molar value.
In this section, each of the compounds is paired with its reported pIC50.

Answered examples (3):
# COMPOUND, TARGET OF ASSAY, pIC50
rows = [
    ("Cc1cccc(F)c1C(=O)N1C2CCC[C@@H]2C[C@H](C(=O)Nc2ccnc(C(F)(F)F)c2)[C@@H]1c1ccc(NC2CCCC2)cc1 (relative stereo)", "C5aR (Homo sapiens (Human))", "5.00 to 5.70"),
    ("Cc1ccc(NC(=O)[C@H]2CCCN(c3ncnc4ccccc34)[C@H]2c2ccc(N(C(=O)OCc3ccccc3)C3CCCC3)cc2)cc1C(F)(F)F", "C5aR (Homo sapiens (Human))", "5.00 to 5.70"),
    ("Cc1ccc(NC(=O)[C@H]2CCCN(C(=O)c3c(C)cccc3F)[C@H]2C2CCC3(CCOC3)CC2)cc1C(F)(F)F (relative stereo)", "C5aR (Homo sapiens (Human))", "5.00 to 5.70"),
]

Problem: For the compound Cc1ccc(NC(=O)[C@H]2CCCN(c3ccncn3)[C@H]2c2ccc(NC3CCCC3)cc2)cc1C(F)(F)F , give its reported pIC50.
Solution: 5.00 to 5.70

Problem: For the compound Cc1cccc(F)c1C(=O)N1C2CCC[C@@H]2C[C@H](C(=O)Nc2ccc3cccnc3c2)[C@@H]1c1ccc(NC2CCCC2)cc1 (mixture of isomers) , give its reported pIC50.
Solution: 6.30 to 7.30

Problem: For the compound COc1ccccc1S(=O)(=O)N1CCC[C@H](C(=O)Nc2ccc(C)c(C(F)(F)F)c2)[C@@H]1c1ccc(NC2CCCC2)cc1 , give its reported pIC50.
Solution: 5.00 to 5.70

Problem: For the compound Cc1ccc(CNC(=O)[C@H]2C[C@H]3CCC[C@H]3N(C(=O)c3c(C)cccc3F)[C@H]2c2ccc(NC3CCCC3)cc2)cc1C(F)(F)F , give its reported pIC50.
Solution: 5.00 to 5.70

Problem: For the compound Cc1cccc(F)c1C(=O)N1C(c2ccc(NC3CCCC3)cc2)C(C(=O)Nc2ccc3c(cnn3C)c2)C[C@@H]2COC[C@@H]21 (relative stereo) , give its reported pIC50.
Solution: 6.30 to 7.30

Problem: For the compound Cc1ccc(NC(=O)[C@H]2CCCN[C@H]2c2ccc(N(c3nccc4nccnc34)C3CCCC3)cc2)cc1C(F)(F)F , give its reported pIC50.
Solution: 5.00 to 5.70

###

- TARGET OF ASSAY: human C5a receptor (C5aR) (Homo sapiens (Human), UniProt P21730)
- Sequence (P21730 whole entry): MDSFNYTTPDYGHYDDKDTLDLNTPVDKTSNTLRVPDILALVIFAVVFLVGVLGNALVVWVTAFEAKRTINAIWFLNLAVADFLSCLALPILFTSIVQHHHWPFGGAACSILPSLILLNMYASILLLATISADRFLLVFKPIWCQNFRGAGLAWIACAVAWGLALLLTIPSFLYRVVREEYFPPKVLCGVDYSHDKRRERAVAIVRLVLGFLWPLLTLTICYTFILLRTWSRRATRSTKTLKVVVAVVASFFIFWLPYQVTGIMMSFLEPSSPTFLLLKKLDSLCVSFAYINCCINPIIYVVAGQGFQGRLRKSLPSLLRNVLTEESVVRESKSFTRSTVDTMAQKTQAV
pIC50: −log10 of the molar value.
In this section, each of the compounds is paired with its reported pIC50.

Answered examples (2):
# COMPOUND, MEASURED VALUE
records = [
    ("Cc1ccc(NC(=O)C2C[C@@H]3CCC[C@@H]3N(C(=O)c3c(C)cccc3F)C2c2ccc(NC3CCCC3)cc2)cc1C(F)(F)F (relative stereo) [Compound 155]", "5.70 to 6.30"),
    ("Cc1ccc(NC(=O)[C@H]2CCCN(S(=O)(=O)c3ccccc3Br)[C@H]2c2ccc(NC3CCCC3)cc2)cc1C(F)(F)F [Compound 27]", "5.30 to 5.70"),
]

Problem: For the compound Cc1cccc(F)c1C(=O)N1[C@@H]2CCC[C@@H]2C[C@H](C(=O)Nc2ccc3c(cnn3CCO)c2)[C@@H]1c1ccc(NC2CCOCC2)cc1 [Compound 102] , give its reported pIC50.
Solution: 5.30 to 5.70

Problem: For the compound Cc1ccc(NC(=O)[C@H]2CCC3CCc4ccccc4C(=O)N3[C@H]2c2ccc(NC3CCCC3)cc2)cc1C(F)(F)F (some centres unmarked) [Compound 44] , give its reported pIC50.
Solution: 6.30 to 7.30

Problem: For the compound Cc1cccc(F)c1C(=O)N1[C@@H]2COC[C@@H]2C[C@H](C(=O)Nc2ccc3[nH]ncc3c2)[C@@H]1c1ccc(NC2CCCC2)cc1 [Compound 138] , give its reported pIC50.
Solution: 6.30 to 7.30

Problem: For the compound Cc1cc(C)c(S(=O)(=O)N2CCC[C@H](C(=O)Nc3ccc(C)c(C(F)(F)F)c3)[C@@H]2c2ccc(NC3CCCC3)cc2)c(C)c1 [Compound 13] , give its reported pIC50.
Solution: 5.30 to 5.70

Problem: For the compound Cc1cccc(F)c1C(=O)N1C2CCC[C@@H]2C[C@H](C(=O)Nc2ccnc(C(F)(F)F)c2)[C@@H]1c1ccc(NC2CCCC2)cc1 (relative stereo) [Compound 79] , give its reported pIC50.
Solution: 5.30 to 5.70

Problem: For the compound Cc1ccc(NC(=O)[C@H]2CCCN(c3ncnc4cccnc34)[C@H]2c2ccc(NC3CCCC3)cc2)cc1C(F)(F)F [Compound 161] , give its reported pIC50.
Solution: 6.30 to 7.30
